testedSystem: T1, Aurora A kinase (Homo sapiens, UniProt O14965)
T1 construct: Codon-optimized Aurora A^122-403 in pET28a and untagged λPP in T7-7 plasmid were co-transformed in BL21(DE3) cells; inferred from pET28a and the NiNTA column) (cleaved yes); made in house; host or cells: E. coli BL21(DE3)
T1 sequence (O14965 122-403): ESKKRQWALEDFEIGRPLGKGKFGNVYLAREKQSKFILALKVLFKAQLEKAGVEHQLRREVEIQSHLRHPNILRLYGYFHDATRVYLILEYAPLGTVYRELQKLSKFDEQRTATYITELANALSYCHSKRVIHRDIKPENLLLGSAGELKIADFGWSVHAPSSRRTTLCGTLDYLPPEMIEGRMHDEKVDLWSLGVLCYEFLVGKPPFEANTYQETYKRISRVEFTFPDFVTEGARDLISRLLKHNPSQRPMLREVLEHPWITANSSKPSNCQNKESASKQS
assayMethodText: In vitro kinase assay (HPLC-based / ATP/NADH-coupled) of peptide substrate phosphorylation
Format: biochemical
endpointLabel: Activity of Monobody on Aurora A kinase

* Mb56: monobody binding allosteric site of Aurora A kinase, SEQ ID NO: 3; inhibitor (protein, listed as Homo sapiens) GSVSSVPTKLEVVAATPTSLLISWDAMSDWYYWVDYYRITYGETGGNSPVQEFTVPGSYSTATISGLKPGVDYTITVYASDDVWGDYSPISINYRT | inhibitor
* Mb44: monobody binding allosteric site of Aurora A kinase, SEQ ID NO: 1; inhibitor (protein, listed as Homo sapiens) GSVSSVPTKLEVVAATPTSLLISWDAPAVTVDFYVITYGETGGYSYPWQEFEVPGSKSTATISGLKPGVDYTITVYADYGQYFYSPISINYRT | inhibitor
* Mb60: monobody binding allosteric site of Aurora A kinase, SEQ ID NO: 4; inhibitor (protein, listed as Homo sapiens) GSVSSVPTKLEVVAATPTSLLISWDAPAVTVVHYVITYGETGGNSPVQEFTVPGSKSTATISGLKPGVDYTITVYAIDFYWGSYSPISINYRT | inhibitor
